- System: HOP-62 NSCLC
- experiment-notes: NCI-60 one-dose screen, 48 h (100 = growth as untreated, 0 = no growth, -100 = all killed)
- cond: 10 µM unless noted
Compounds without any hit were thinned out: in the full panel of roughly 83,000, 20% have a hit. Active and inactive are the calls of the source. How the source made its calls: active means growth percent below 10; inactive means the rest.
outcome-measure: growth

Guide cases for growth, answers given:
compound: CC(C)C(NC(=O)C1(NC(=O)OCc2ccccc2)CCCC1)C(=O)O (stereo unspecified)
growth: 119% (inactive)
//
compound: C=CCOC1=CC(=O)c2ccccc2C1=O
growth: 95.6% (inactive)

For the compound O=C(O)c1ccc2c(c1)CCC2 , what growth is on record?
114% (inactive)

Next: NS(=O)(=O)c1ccc(-n2nc(C(=O)N/N=C\c3ccc(F)cc3)cc2-c2ccc(Cl)cc2)cc1
74.1% (inactive)

Next: Cn1c2c(c3ccc(Cl)c(Cl)c31)C(C#N)C1(CCNCC1)NC2=O (stereo unspecified)
23.8% (inactive)

Next: NNC(=O)c1nc(N)n(-c2ccc(S(N)(=O)=O)cc2)n1
90.6% (inactive)

Next: COc1ccc(-c2csc(C3=C(O)CN(C(C)C)C3=N)n2)cc1OC
87% (inactive)

Next: c1ccc(Nc2nc(-c3ccccn3)cs2)nc1
16.4% (inactive)

Next: Nc1n[nH]c(-c2cc(Cl)ccc2O)c1-c1ccccc1
83.6% (inactive)

Next: COc1ccc(C2=Nc3c(N)ncnc3NC(c3ccc4c(c3)OCO4)C2)cc1 (stereo unspecified)
68.1% (inactive)

Next: O=C(Cc1ccc(F)c(F)c1)Nc1cc(C2(C(F)(F)F)CC2)nn1Cc1ccccc1
-0.0766% (active)

---

- Test system: COLO 205 colon
- experiment-notes: NCI-60 one-dose screen, 48 h
- cond: 10 µM unless noted
Compounds without any hit were thinned out: in the full panel of roughly 83,000, 20% have a hit. Active and inactive are the calls of the source. Rule for the calls: active = growth percent below 10; inactive = the rest.
Returns: one label drawn from y (active), n (inactive)

Solved cases (5 shown):
compound: Cc1cc(NCc2cc(Nc3ccnc4cc(Cl)ccc34)ccc2F)nc(N2CCCC2)n1
target: COLO 205 colon
answer-label: y

compound: COc1ccccc1NC(=O)N/C(N)=N/c1nc2ccccc2s1
target: COLO 205 colon
answer-label: y

compound: FC(F)(F)c1cc(Nc2ccc3cc(OCCCN4CCOCC4)ccc3n2)ccc1Cl
target: COLO 205 colon
answer-label: y

compound: N#C/C(=C/C=C/c1cccc(Cl)c1)S(=O)c1ccccc1 (centres undefined)
target: COLO 205 colon
answer-label: y

compound: O=C1CC(N2C(=O)/C(=C/C(Cl)=C\c3ccc([N+](=O)[O-])cc3)SC2=S)C(=O)N1c1ccc(O)cc1 (centres undefined)
target: COLO 205 colon
answer-label: y

I would be grateful if you could indicate the recorded call for COc1cc(/C=C/C(=O)N2CCN(C(=O)c3cc(OC)c(OC)c(OC)c3)CC2)ccc1OCCCN1C(=O)c2cccc3cccc(c23)C1=O .
n

Next: O=c1[nH][n+](-c2ccc(Cl)cc2)no1
n

Next: CCOC(CN=Cc1cc(C)c2[nH]c3ccccc3c2c1C)OCC
n

Next: CC(=O)N1N=C(c2ccc(Nc3nc(Nc4ccc(F)cc4)nc(Nc4ccc(F)cc4)n3)cc2)CC1c1cccc([N+](=O)[O-])c1 (centres undefined)
n

Next: COc1cccc(C(=O)NCCCNc2cc(-c3cn(-c4ccccc4)nc3-c3cccc(OC)c3)ccn2)c1
n

Next: O=S(=O)(O)c1ccc(N/N=C/c2ccccc2Cl)cc1
n

The measured values listed here are drawn from PubChem BioAssay (NCI).
